# assayRemarks: Quantitative High-Throughput drug screen in 47 multiple myeloma cell lines against the NCATS MIPE library collection: JIM1_ECACC cell viability assay (AID 1918964; also: potency is read from the fitted curve at half-maximal effect)
# setupConditions: JIM1 myeloma viability, CellTiter-Glo ATP luminescence, 48 h; series mostly up to 45.8 µM
Inconclusive results are not listed. Calls of active or inactive are those of the source. Calls follow the shape of the dose curve; as a rule, active = well fitted cell-killing curve with a large enough effect; inconclusive = small, poorly fitted or top-dose-only effect, or effect the other way; inactive = no such curve, though single readings can be large or run the other way.
Field: Potency. Provide a value for each of the compounds that follow.

Hi team, please reply with Potency for each item in this list.
1. CC(C)C[C@H](NC(=O)CNC(=O)c1cc(Cl)ccc1Cl)B(O)O
2. COc1ccc2c(c1)CC[C@@H](CN(C)CC(=O)O)[C@H]2c1ccccc1
3. CC(C)[C@H](C(=O)Nc1ccc(C(=O)NO)cc1)c1ccccc1
4. COc1cc(Nc2ncc(F)c(Nc3ccc4c(n3)N(COP(=O)(O)O)C(=O)C(C)(C)O4)n2)cc(OC)c1OC
5. O=C(Nc1ncc(-c2cc(C(F)F)nn2-c2c(Cl)cccc2Cl)s1)C1CC1

["105 nM (active)", "372 nM (active)", "332 nM (active)", "1180 nM (active)", "166 nM (active)"]

* * *

# assayRemarks: qHTS of pediatric cancer cell lines to identify multiple opportunities for drug repurposing: Primary screen for LAN-5 cells (AID 1347100)
# setupConditions: LAN-5 neuroblastoma viability, CellTiter-Glo luminescence, 48 h; series mostly up to 46 µM
Inconclusive results are not listed. Calls of active or inactive are those of the source. The call rests on the fitted dose curve; in most records, active means well fitted cell-killing curve with a large enough effect; inconclusive means small, poorly fitted or top-dose-only effect; inactive means no such curve, though single readings can be large or run the other way.
I would appreciate it if you answered using one of these outcomes: 1.0 for active, 0.0 for inactive

- querySmiles: "O=c1c2ccccc2nc2n1CCc1c-2[nH]c2ccccc12"
  classification: 0.0
- querySmiles: "CCc1c2c(nc3ccc(O)cc13)-c1cc3c(c(=O)n1C2)COC(=O)[C@]3(O)CC"
  classification: 1.0
- querySmiles: "COc1ccc2c(OCc3nnc4ccc(-c5ccccc5)nn34)ccnc2c1"
  classification: 0.0

Now take the following compound into account.
Given CC(C)(O)c1cc2nc(-c3cnc(N)nc3)nc(N3CCOCC3)c2s1 , state the outcome it received in this test.
1.0

* * *

# Tested on: HEK293
# assayRemarks: Cytotoxic Profiling of Annotated Libraries Using Quantitative High-Throughput Screening (AID 1296008); also: nearly all actives have a fitted effect of over 60% in size
# setupConditions: Five cell lines viability, CellTiter-Glo ATP luminescence, 48-72 h
Inconclusive results are not listed. The source made the active and inactive calls. Calls follow the shape of the dose curve; as a rule, active = well fitted inhibition curve with a large enough effect; inconclusive = small, poorly fitted or top-dose-only effect; inactive = flat fitted curve, though single readings scatter.
Please answer using one outcome listed in active, inactive

- querySmiles: "COc1cc2c(Oc3ccc(-c4cnc(Nc5ccc(F)cc5)n(C)c4=O)cc3F)ccnc2cc1OCCCN1CCOCC1"
  classification: "active"
- querySmiles: "CC(=O)Nc1sc2c(c1-c1nc3ccccc3s1)CNC2"
  classification: "active"
- querySmiles: "CCCNC(=O)Nc1ccc(Oc2ncnc3cc(OC)c(OC)cc23)cc1Cl"
  classification: "inactive"
- querySmiles: "CN(c1ncccc1CNc1nc(Nc2ccc3c(c2)CC(=O)N3)ncc1C(F)(F)F)S(C)(=O)=O"
  classification: "active"

Give the logged outcome of this assay for the following compound: Cc1c(C)n(Cc2ccc(-c3ccccc3C(=O)O)cc2)c2ccc(C(=O)N[C@@H](C)c3ccc([N+](=O)[O-])cc3)cc12
inactive

Tell me the assay call for Cn1cncc1[C@@](N)(c1ccc(Cl)cc1)c1ccc2c(c1)c(-c1cccc(Cl)c1)cc(=O)n2C please.
active

Which outcome did this test record for the compound Cc1cc(Nc2cc(N3CCN(C)CC3)nc(C=Cc3ccccc3)n2)n[nH]1 ?
active

Test call, this compound: COc1ccc(F)c(F)c1C(=O)c1cnc(NC2CCN(S(C)(=O)=O)CC2)nc1N
active

Check the results log: what was the call for CNC(=O)c1ccc(-c2cnc3ncc(Cc4ccc5ncccc5c4)n3n2)cc1F ?
inactive

Entry CC(C)(C)c1cnc(CSc2cnc(NC(=O)C3CCNCC3)s2)o1 : call = ?
active

I'd appreciate the recorded outcome for O=C(NCCCNc1nc(Nc2cccc(NC(=O)N3CCCC3)c2)ncc1I)c1cccs1 from this test.
active

* * *

# assayRemarks: Quantitative High-Throughput drug screen in 47 multiple myeloma cell lines against the NCATS MIPE library collection: MM1S_ATCC cell viability assay (AID 1918980); also: nearly all actives have a fitted effect of over 45% in size
# setupConditions: MM1S myeloma viability, CellTiter-Glo ATP luminescence, 48 h; series mostly up to 45.8 µM
Results filed as inconclusive are left out. Calls of active or inactive are those of the source. The call rests on the fitted dose curve; in most records, active means well fitted cell-killing curve with a large enough effect; inconclusive means small, poorly fitted or top-dose-only effect, or effect the other way; inactive means no such curve, though single readings can be large or run the other way.
# output must be one of active, inactive

The examples below pair each entry with its known result.
- querySmiles: "Cn1c2ccccc2c2c3c(c4c5ccccc5n(CCC#N)c4c21)CNC3=O"
  classification: "active"
- querySmiles: "C[C@@H]1CN(CC(=O)Nc2ccc3c(c2)Cc2cccc(-c4cc(=O)cc(N5CCOCC5)o4)c2S3)C[C@H](C)O1"
  classification: "active"
- querySmiles: "CNC(=O)c1ccccc1Nc1nc(Nc2ccc(N3CCOCC3)cc2OC)ncc1Cl"
  classification: "active"
- querySmiles: "O=C(C=Cc1cccnc1)NCCCCC1CCN(C(=O)c2ccccc2)CC1"
  classification: "active"
- querySmiles: "COc1cc2c(Oc3ccc4[nH]c(C)cc4c3F)ncnc2cc1OCCCN1CCCC1"
  classification: "active"
- querySmiles: "N#CCNC(=O)c1ccc(-c2ccnc(Nc3ccc(N4CCOCC4)cc3)n2)cc1"
  classification: "active"
- querySmiles: "O=C(CCCCCCNC(=O)c1cnc(N(c2ccccc2)c2ccccc2)nc1)NO"
  classification: "active"
- querySmiles: "c1nc2nc(Nc3ccc(N4CCOCC4)cc3)nc(NC3CCCCC3)c2[nH]1"
  classification: "active"

So what was the verdict on O=C(Cc1ccc(-c2ccc(OCCN3CCOCC3)cc2)cn1)NCc1ccccc1 in this test?
active

Recorded test outcome, item COc1ccc2c(OCc3nnc4ccc(-c5ccccc5)nn34)ccnc2c1
inactive

* * *

Please respond with reported max response for every item in the list.
# Tested on: CRL-7250
# assayRemarks: Cytotoxic Profiling of Annotated Libraries Using Quantitative High-Throughput Screening (AID 1296008); also: nearly all actives have a fitted effect of over 60% in size; as to max response: % is scaled to controls: 0 for no effect and ±100 for the full control effect
# setupConditions: Five cell lines viability, CellTiter-Glo ATP luminescence, 48-72 h; hits give low values
Results filed as inconclusive are left out. The source made the active and inactive calls. Calls follow the shape of the dose curve; as a rule, active = well fitted inhibition curve with a large enough effect; inconclusive = small, poorly fitted or top-dose-only effect; inactive = flat fitted curve, though single readings scatter.

- compound: "O=C1CCC[C@@H]2[C@H]3CCC[N+]4([O-])CCC[C@@H](CN12)[C@@H]34 (stereo not given in full)"
  assayEndpoint: "max response"
  readoutValue: "2.61% (inactive)"
- compound: "Nc1ccc(C(=O)c2cc3c(ccc4ccccc43)[nH]2)cc1"
  assayEndpoint: "max response"
  readoutValue: "-31% (inactive)"
- compound: "COc1cccc(Nc2c(C(N)=O)cnc3c(C)cc(S(=O)(=O)c4cccc(C(=O)N(C)C)c4)cc23)c1"
  assayEndpoint: "max response"
  readoutValue: "-20.3% (inactive)"
- compound: "CC(=O)OCCN1C(=O)c2c(C)nc3ccc(S(=O)(=O)N4CCOCC4)cc3c2C1=O"
  assayEndpoint: "max response"
  readoutValue: "-12.8% (inactive)"
- compound: "CC1(C)O[C@@H]2C[C@@H]3[C@H]4C[C@@H](F)C5=CC(=O)C=C[C@]5(C)[C@@]4(F)[C@@H](O)C[C@]3(C)[C@]2(C(=O)CO)O1"
  assayEndpoint: "max response"
  readoutValue: "-20% (inactive)"
- compound: "O=C(c1cncc(Br)c1)N1CCC(N2CCCC2)CC1"
  assayEndpoint: "max response"
  readoutValue: "-7.35% (inactive)"
- compound: "CS(=O)(=O)c1ccc(-c2cnc(N)c(C(=O)Nc3ccccc3)n2)cc1"
  assayEndpoint: "max response"
  readoutValue: "-11% (inactive)"
- compound: "CCNC(=O)Nc1ccc2ncc(Nc3ccc(C)cc3)nc2n1"
  assayEndpoint: "max response"
  readoutValue: "-2.45% (inactive)"

Quick one: give me max response for each item below, same order please.
1. O=C(O)CCCc1c[nH]c2ccccc12
2. Cc1nc2ccc(CN(C)c3ccc(C(=O)N[C@@H](CCC(=O)O)C(=O)O)s3)cc2c(=O)[nH]1

1. -4.82% (inactive)
2. -19.7% (inactive)

* * *

# assayRemarks: Quantitative High-Throughput drug screen in 47 multiple myeloma cell lines against the NCATS MIPE library collection: L363_DSMZ cell viability assay (AID 1918984); also: nearly all actives have a fitted effect of over 40% in size
# setupConditions: L363 myeloma viability, CellTiter-Glo ATP luminescence, 48 h; series mostly up to 45.8 µM
# Excerpt: PI: Beverly A. Mock Ph.D. Laboratory of Cancer Biology and Genetics, Center for Cancer Research, National Cancer Institute, National Institute of Health, Bethesda, Maryland […] 5; Detector; 425V; Luminescence; Viewlux PerkinElmer. […] 1. […] Briefly, the corresponding myeloma cell lines were screened in 1,536-well plates with 500 cells, 5-uL per well for inhibition of cell viability (assessed by measuring ATP levels with CellTiterGlo). […]
Results filed as inconclusive are left out. Active and inactive are the calls of the source. Calls come from the whole dose curve; as a rule, active = well fitted cell-killing curve with a large enough effect; inconclusive = small, poorly fitted or top-dose-only effect, or effect the other way; inactive = no such curve, though single readings can be large or run the other way.
Pick one: class 1 (active), class 0 (inactive)

Worked set:
- molecule: "N#Cc1c(O)c2c(-c3ccc(-c4ccccc4O)cc3)csc2[nH]c1=O"
  classification: "class 0"
- molecule: "CN1CCN(c2cc(C(=O)Nc3ccc4c(c3)-c3c(c(C(N)=O)nn3-c3ccc(F)cc3)CC4)c(Cl)cn2)CC1"
  classification: "class 1"
- molecule: "CC(C)c1ccc(Cn2ccc3c4c(N)nc(NC5CC5)nc4ccc32)cc1"
  classification: "class 1"
- molecule: "Nc1ncnc2c1c(-c1cccc(OCc3ccccc3)c1)cn2C1CC(CN2CCCC2)C1 (stereo not given)"
  classification: "class 1"
- molecule: "O=C(NC1CCNCC1)c1[nH]ncc1NC(=O)c1c(Cl)cccc1Cl"
  classification: "class 1"

Returns: the outcome recorded for CN(C)Cc1c(C(=O)NCCOc2ccc(C(=O)NO)cc2)oc2ccccc12 in this assay.
class 1

// return assay outcome for COc1cc(C)c(Sc2cnc(NC(=O)c3ccc(CNC(C)C(C)C)cc3)s2)cc1C(=O)N1CCN(C(C)=O)CC1 (stereo not given)
class 1

// return assay outcome for CC(C)(O)CCc1ccc(OCc2cc(-c3cccc(OC(F)F)c3)c3ncccc3c2)cc1
class 0

Per the records of this test, what outcome belongs to Nc1ccccc1NC(=O)c1ccc(CNc2nccc(-c3cccnc3)n2)cc1 ?
class 1

What classification did CC(C)c1cc(-c2n[nH]c(=O)n2-c2ccc3c(ccn3C)c2)c(O)cc1O end up with in this test?
class 1
